FYI, the data here is from paper PMC9587871.

Test system: colorectal HT29 cancer cell line
Assay: SRB antiproliferative assay, HT29
Type: cell-based
Conditions: read-out: Cytotoxicity (as of %Control) IC50 value, HT29, 72 h incubations, n=4, listed as cisplatin
readout.type: IC50 (µM)
One number for each entry, in µM.

*Q* // query IC50 value for entry N.N.[Cl][Pt][Cl] [Cisplatin]
*A* 45

---

Tested on: Leukaemia K562 cancer cell line
Assay: SRB antiproliferative assay, K562
Assay type: cell-based
Conditions: read-out: Cytotoxicity (as of %Control) IC50 value, K562, 72 h incubations, n=4, NI is lack of cytotoxicity within the tested 0.1-200 μg/mL range, listed as cisplatin
readout.type: IC50 (µM)
One number for each entry, in µM.

*Q* // query IC50 value for entry N.N.[Cl][Pt][Cl] [Cisplatin]
*A* 180

---

Test system: Leukaemia K562 cancer cell line
Assay: SRB antiproliferative assay, K562
Type: cell-based
Conditions: read-out: Cytotoxicity (as of %Control) IC50 value, K562, 72 h incubations, n=4, NI is lack of cytotoxicity within the tested 0.1-200 μg/mL range
readout.type: IC50 (µM)
One number for each entry, in µM.

*Q* // query IC50 value for entry N.N.[Cl][Pt][Cl] [Cisplatin]
*A* 180

---

Test system: breast MCF7 cancer cell line
Test: SRB antiproliferative assay, MCF7
Format: cell-based
Conditions: read-out: Cytotoxicity (as of %Control) IC50 value, MCF7, 72 h incubations, n=4
readout.type: IC50 (µM)
One number for each entry, in µM.

*Q* // query IC50 value for entry N.N.[Cl][Pt][Cl] [Cisplatin]
*A* 28.1

---

System: breast MCF7 cancer cell line
Assay: SRB antiproliferative assay, MCF7
Assay type: cell-based
Details: read-out: Cytotoxicity (as of %Control) IC50 value, MCF7, 72 h incubations, n=4, listed as cisplatin
readout.type: IC50 (µM)
Numbers only, in µM.

*Q* // query IC50 value for entry N.N.[Cl][Pt][Cl] [Cisplatin]
*A* 28

---

Test system: colorectal HT29 cancer cell line
Test: SRB antiproliferative assay, HT29
Format: cell-based
Details: read-out: Cytotoxicity (as of %Control) IC50 value, HT29, 72 h incubations, n=4
readout.type: pIC50
Answers are plain numbers, as −log10 of the molar value.

*Q* // query pIC50 value for entry N.N.[Cl][Pt][Cl] [Cisplatin]
*A* 4.35
